TEST SUMMARY: soluble on expression in E. coli; label from the status in PepcDB or PDB records
PROPERTY LABEL: soluble on expression in E. coli

1. MVNAIRTPDQRFSNLDQYPFSPNYLDDLPGYPGLRAHYLDEGNSDAEDVFLCLHGEPTWSYLYRKMIPVFAESGARVIAPDFFGFGKSDKPVDEEDYTFEFHRNFLLALIERLDLRNITLVVQDWGGFLGLTLPMADPSRFKRLIIMNACLMTDPVTQPAFSAFVTQPADGFTAYKYDLVTPSDLRLDQFMKRWAPTLTEAEASAYAAPFPDTSYQAGVRKFPKMVAQRDQACIDISTEAISFWQNDWNGQTFMAIGMKDKLLGPDVMYPMKALINGCPEPLEIADAGHFVQEFGEQVAREALKHFAETE; soluble
2. MDIVDEKWEEYLKNLDEMSKSALLETFNIGASHAATALSEMTGKEVNISVPDLKIIAIKNVPEVVGEDVKVAVYIELGKDFSSHAFFIADYEDALRMFDIIMGNPLGTTKEMDEMVKSSFMEVGNILISAFANALSEFLGITIEQTPPSLAIDFLPAILDFALADIGKYCDYTIILQTNIKISDVKFEEHFLLFPKPEDMKKILEKLLGGFA; soluble
3. INQPVIETERFDLRPLRKSDMGLIEHYARDERVARMTTSIPHPLPPGMAEGFVARAMSEERTEDVWAMDATRDGGPELMGLISLERMDRNQSEVGYWVAPVFWNTGIASMAVEALVNANPLGNATMFASVFQDNPASARVLTHCGFQYLGDAESYSVARDAAVPTWTYSRKL; soluble

====

TEST SUMMARY: soluble on expression in E. coli; label from the status in PepcDB or PDB records
PROPERTY LABEL: soluble on expression in E. coli

1) MGSDKIHHHHHHMTSANIQMAVYCFDVINAQLNREKEPPVPKEIPNVKLPLFVTWKKGHQHDLRGCIGTFSDLRLGEGLNEYAKTSAFHDSRFKPISREEVPSLQCGVSLLINFEPIHNFRDWTIGRHGVRMNFDDGHRNRSAVFLPEVAQEQGWNHVETIDHLIRKSGYGGHINDALRSALRIVRFQSSKLVLDYKDYVNYKQSHGLPLPR; not soluble
2) MQKQLLLGVEAIAQAALDAGISGVYAYPGTPSTEITEHIQNSRMAKERNVHREWAANEKTAMESALGMSYAGKRALVCMKHVGMNVAADCFMNAAITGANGGMVIVAADDPSMHSSQNEQDSRVYGQFAMIPVMEPSNQQEAYDMTRLAFDLSERLGTPVMMRITTRLAHSRAGVVQTEPIGENELHLP; not soluble

====

TEST SUMMARY: soluble on expression in E. coli; label from the status in PepcDB or PDB records
PROPERTY LABEL: soluble on expression in E. coli

1. MEIERKFLVLNDDFKAKATAVHNIIQAYLVADERCTVRIRLCNDEAYLTIKGKTNEGGLSRSEYEYSVPFEEAKEMLTLCLPGYIMKQRYCVPHKGHVWEVDVFEGRHKGLVIAEVELATEDESIELPDWIGNEVTGDKRYYNSFIAGIQK; soluble
2. KQKKMQAMIVTSKPYCVIKRIHRDLHRGVTCINDAEGTYNHEKKAVLITILTREEFSDFKYLMLKADPKAFVSVAENVHIIGRFVDDD; not soluble
3. MIFLSFKKSFKNITIEGKFTFEKGFNVILGPSGAGKSTVIKVMCGIEKPDEGFMKCCDEVFFDTKKGVFLPPQKRRLGVVFQSHNLFPHMTVRENIEFALKKAKEPQFTVEELLEKFNLKGHENKYPGELSGGQRQRVAVIRAIVFNPRAVLMDEPFSSLDFKTKLSIMEFIKSVHIEKPVIIVTHDLFEALYLGQKFFLMDNGKKVKEGGKEVLKEYVDLEKIKKFLS; soluble
4. MAHHHHHHMLKECDFFSDSYGCIITKSIGYQAPFPLVRLSNGRSTKIPDGACVQGACFVSFGADHTGSRGRLLTMDVSARASSVSFLQLLSSSCPPVTLEPEVEYVSKIETTETASAVVTRGGGNRWSTSVYVQGEDVPDTAYSRRVHFHRASVASLFGFSLWLMEVAKDDYGAQAVHRYSLSTALTGGVSESTLVSANLGRPLDIIALSEDTALVLGTNGVAMADRRQRASDILFFSNLLNGGATGDRQLLTFGEDYTLRAYDLRDVSAPLFQATSATYLRIKSEIDTRASLLVTSDITGVFDVLHVTTVASLQHSGDTVLDAAVLPSRHNGVRVCTSTGSGMIYDWTVT; not soluble

====

TEST SUMMARY: soluble on expression in E. coli; label from the status in PepcDB or PDB records
PROPERTY LABEL: soluble on expression in E. coli

1) MEKPVICRIKEIIEESPTVKTFVVDKDFDFKPGQFAMLWLPGVDEKPFGFSSKNSFSVARVGEFTKKMHELKEGDIIGVRGPYGTYFEPIGDKVLAVAGGIGAAPIITAVEEFSKQGIEITTILGARTKEELLFLDRFEKVSRLEICTDDGSFGFKGFTTEKMKEVLKEEKFDLIITCGPEIMMKKVVEIANEYNIPVQVSMERYMKCGIGICGQCCVDDEGLCVCKDGPVFWGDKLKFIREFGKYKRDASGKKIYY; not soluble
2) MSMSSMSSPSSAVCSPDHFSPSDHLCYVQCNFCQTILAVNVPYTSLFKTVTVRCGCCTNLLSVNMRSYVLPASNQLQLQLGPHSYFNPQDILEELRDAPSNMNMMMMNQHPTMNDIPSFMDLHQQHEIPKAPPVNRPPEKRQRVPSAYNRFIKEEIQRIKAGNPDISHREAFSAAAKNWAHFPHIHFGLVPDNQPVKKTNMPQQEGEDNMVMKEGFYAPAAANVGVTPY; soluble
3) MRLLPVTLLLGAVIFVSTKSTCRTRTKPPSTVPMNEVTEAVTTKKASNVTVKPTTCEASWTRVERSIGGWCLKVYNGFVHQDQASQACIRIGAELSGSESSAERAVIARLGKERMLAASDYKFGTIRVGIARPTTTRAWALTDGNNDGGQQGIQWSKGEPQLGPTSGYSHNCALMWIWASTGTSPYEHGKYFHKFVHLLGRTCTEDLFVESVLLDF; not soluble
4) MRKELVFVLLALFLCAGCNGNKKKMNGEHDLDAANITLDDHTISFYYNWYGNPSVDGEMKHWMHPIALAPGHSGDVGAISGLNDDIACNFYPELGTYSSNDPEIIRKHIRMHIKANVGVLSVTWWGESDYGNQSVSLLLDEAAKVGAKVCFHIEPFNGRSPQTVRENIQYIVDTYGDHPAFYRTHGKPLFFIYDSYLIKPAEWAKLFAAGGEISVRNTKYDGLFIGLTLKESELPDIETACMDGFYTYFAATGFTNASTPANWKSMQQWAKAHNKLFIPSVGPGYIDTRIRPWNGSTTRDRENGKYYDDMYKAAIESGASYISITSFNEWHEGTQIEPAVSKKCDAFEYLDYKPLADDYYLIRTAYWVDEFRKARSASEDVQLEHHHHHH; soluble
5) EVDPAKCVLQGEDLHRAREKQTASFTLLCKDAAGEIMGRGGDNVQVAVVPKDKKDSPVRTMVQDNKDGTYYISYTPKEPGVYTVWVCIKEQHVQGSPFTVTVRRKH; soluble
6) SISPAQIAEALQGRGWDAEIVTDASMAGQLVDVRPEGILKCVDGRGSDNTRMGGPKMPGGIYAIAHNRGVTSIEGLKQITKEVASKGHLPSVHGDHSSDMLGCGFFKLWVTGRFDDMGYPRPQFDADQGANAVKDAGGIIEMHHGSHTEKVVYINLLANKTLEPNENDQRFIVDGWAADKFGLDVPKFLIAAAATVEMLGGPKNAKIVVP; soluble
7) GPGSMMELPMEMNVDGVPMVLSKVSYSPMLDFGGTFSYRRYCFVGELQPEGYVNWFFAPLEGYKDKRLRVHESAVKEGALNHLVFMRLGELSFRQYKLKHIPSPTEQPHSPVTPQGDSTKQLMGHAHPHFNYIFEAMRQDQASSPSPRSSSIGSDCTYHSSKESCESLQMSSSLVDLPGKRLSNASLRSGVRPPLEARRGAVCDDEGFLPPVRSLKKSSERSQEL; not soluble
8) MLSDIQHDQFGFIKGCIISVIWLSLSRTLNRDQLNLDRFEFWQPTSQLLVLDVCLFDAFALEHHHHHH; not soluble

====

TEST SUMMARY: soluble on expression in E. coli; label from the status in PepcDB or PDB records
PROPERTY LABEL: soluble on expression in E. coli

1) MSLCAAHAARPLALVMRLGYETAMSQIESLFVTRLYRARLSEHGPAIDPEEMEASCYSIAEDDEAGQEWCEENGYPGYTSYASLTDLPWRFPIFADLVTSLDAHVAAFAADLEFDLDGRKLVLEDLWINILPQGGMHSSHLHPHSVISGTTYVAMPEGASALKLEDPRSGRMMAAPTRTKTARRELQPFIYMKPDVGDVLLWESWLRHEVPMNMSEEERISVSFNYRWDEGHHHHHH; soluble
2) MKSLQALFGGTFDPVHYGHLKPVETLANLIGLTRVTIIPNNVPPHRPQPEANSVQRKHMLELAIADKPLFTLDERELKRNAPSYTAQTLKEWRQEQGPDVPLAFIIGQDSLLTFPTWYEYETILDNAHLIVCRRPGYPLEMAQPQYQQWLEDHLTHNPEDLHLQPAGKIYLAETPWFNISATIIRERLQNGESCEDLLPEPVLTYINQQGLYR; soluble
3) MQKGVYIMNSTSSIITIGREYGSGGRQIGQEVAKYFGIKCYDKELLEHAANDSGICKELFEHHDEKPTNSFLYSLVMDTYSFGYSSSGFSDMPMNHKIFLAQFDAIKKLAGEGPCVMVGRCADYALADWNDCFSIFVHADLDWRINRIASKHGKTPKEAKDMITKTDKSRASYYNYYTNKKWGAARSYNLCIDSGKLGIDYATEAIIESIKIFDRTKISK; not soluble
4) STDIQMTQSPSSLSASVGDRVTITCQASQDINNYLIWYQQKPGQAPKLLIYDASTLETGVPSRFSGSGSGTEFTFTISSLQPEDLATYYCQQYDNLPYTFGQGTKLEIKR; soluble
5) MGSDKIHHHHHHMSRTLIIYSTVDGQTKAICDQIAEQCKSDTQPVTMVSLEEAQSVNLSYFDKVIIGASIRYGKHRPELFQYVNRHRAVLNGKKNAFFTVNVVARKPEKNTPETNPYMKKFLQLSLWQPQQLGVFAGKIDYPKYRFFDKFMIRFIMWITKGPTDTSGTYEFTDWDKVQEFAKAFSER; not soluble
6) MANLCKRVVDLEKYIVKEAPPTVYYIPDFISEAEEEFLLQQVYRAPKPKWTQLSGRRLQNWGGLPNPKGMLAEKLPDWLLEYTEKISALGAFAGKTANHVLVNEYKPGEGIMPHEDGPLYHPTVTTITVGSHTLLDFYRPVCQAEPDAPQTEESRYMLSLLVQRKSLLILQDDMYKCYLHGIRGVCEDVLSEHVVNISSTGAQVGDTLPRSTRVSLTIRHVPKIIRANLFLGKK; not soluble
7) MSLESILITGASGFIGSFIVEEALKRKFGVWAGIRPTSSKKYLKNRKIHFLELDFAHPNELRAQLSGHKGTYNKFDYIIHCAGVTKCPDKNTFDYVNYLQTKYFIDTLKALNMVPKQFIYISTLSVFGPVREKDYSPIEAGDVPMPNTAYGLSKLKAELYIQSIPGFPYVIYRPTGVYGPRELDYFLMAKSIRQHVDFSVGFRRQDLTFVYVKDIVQAIFLGIEKKVTRRAYFLTDGKVYNSRVFSDLIQKELGNPFVIHVKCPLIVLKVISLLAEFIATRSGKSSTLNSDKYKIMKQRNWQCDITPAINELGYAPEYDLEKGVRETIDWYKNEGWEGHHHHHH; soluble
8) MCMNKKRIYKFRRFLARKLDFPSDAVMYTPRINISVTGDEEITIENYRGIVEFSDENIKVNTEVGTISIDGKNFEIVFISGSTIILGGKFKTIAYGGDKNEALEHHHHHH; soluble
